Consider the following compounds; for each one, report its pEC50.
# Tested on: Human immunodeficiency virus 1
# Assay remarks: microbe, parasite or virus in culture
# Format: functional, organism-based
# Condition set: Human immunodeficiency virus 1, NL432
pEC50 here: minus log base 10 of the concentration, concentration in moles per litre.

Quick one: pEC50 of CC(=O)N[C@H](COCc1ccccc1)C(=O)N[C@@H](Cc1ccccc1)[C@H](O)C(=O)N1CSC(C)(C)[C@H]1C(=O)NCc1ccccc1C ?
7.36

Quick one: pEC50 of Cc1ccccc1CNC(=O)[C@H]1N(C(=O)[C@@H](O)[C@H](Cc2ccccc2)NC(=O)[C@@H](CSc2cccc3ccccc23)NS(C)(=O)=O)CSC1(C)C ?
7.89

Quick one: pEC50 of CC(=O)N[C@H](CCc1ccccc1)C(=O)N[C@@H](Cc1ccccc1)[C@H](O)C(=O)N1CSC(C)(C)[C@H]1C(=O)NCc1ccccc1C ?
6.88

Quick one: pEC50 of Cc1ccc(CSC[C@@H](NS(C)(=O)=O)C(=O)N[C@@H](Cc2ccccc2)[C@H](O)C(=O)N2CSC(C)(C)[C@H]2C(=O)NCc2ccccc2C)cc1 ?
7.37

Quick one: pEC50 of Cc1ccccc1CNC(=O)[C@H]1N(C(=O)[C@@H](O)[C@H](Cc2ccccc2)NC(=O)[C@@H](CSCc2ccccc2)NS(C)(=O)=O)CSC1(C)C ?
7.26

Quick one: pEC50 of Cc1ccccc1CNC(=O)[C@H]1N(C(=O)[C@@H](O)[C@H](Cc2ccccc2)NC(=O)[C@@H](COCc2ccccc2)NS(C)(=O)=O)CSC1(C)C ?
7.04

Quick one: pEC50 of COc1ccc(CSC[C@@H](NS(C)(=O)=O)C(=O)N[C@@H](Cc2ccccc2)[C@H](O)C(=O)N2CSC(C)(C)[C@H]2C(=O)NCc2ccccc2C)cc1 ?
7.64

Quick one: pEC50 of Cc1ccccc1CNC(=O)[C@H]1N(C(=O)[C@@H](O)[C@H](Cc2ccccc2)NC(=O)[C@@H](CSc2ccc3ccccc3c2)NS(C)(=O)=O)CSC1(C)C ?
7.64

---

# System under test: Protease (Human immunodeficiency virus 1)
# Condition set: at 1 nM
Consider the following molecules; for each one, report its inhibition.
Write the number in % without appending the unit.

Kindly state the measured inhibition obtained for Cc1c(O)cccc1C(=O)N[C@@H](CSc1ccccc1)[C@H](O)CN1C[C@H]2CCCC[C@H]2C[C@H]1C(=O)NC(C)(C)C with Protease (Human immunodeficiency virus 1).
29

Kindly state the measured inhibition obtained for Cc1ccccc1CNC(=O)[C@H]1N(C(=O)[C@@H](O)[C@H](Cc2ccccc2)NC(=O)[C@@H](CS(=O)(=O)c2ccc3ccccc3c2)NS(C)(=O)=O)CSC1(C)C with Protease (Human immunodeficiency virus 1).
98

Kindly state the measured inhibition obtained for Cc1ccccc1CNC(=O)[C@H]1N(C(=O)[C@@H](O)[C@H](Cc2ccccc2)NC(=O)[C@@H](CS(=O)(=O)c2ccc(Cl)cc2)NS(C)(=O)=O)CSC1(C)C with Protease (Human immunodeficiency virus 1).
95

Kindly state the measured inhibition obtained for CC(=O)N[C@H](CS(=O)(=O)c1ccc(F)cc1)C(=O)N[C@@H](Cc1ccccc1)[C@H](O)C(=O)N1CSC(C)(C)[C@H]1C(=O)NCc1ccccc1C with Protease (Human immunodeficiency virus 1).
79

Kindly state the measured inhibition obtained for CC(=O)N[C@H](CSc1cccc2ccccc12)C(=O)N[C@@H](Cc1ccccc1)[C@H](O)C(=O)N1CSC(C)(C)[C@H]1C(=O)NCc1ccccc1C with Protease (Human immunodeficiency virus 1).
68

Kindly state the measured inhibition obtained for Cc1ccccc1CNC(=O)[C@H]1N(C(=O)[C@@H](O)[C@H](Cc2ccccc2)NC(=O)[C@@H](CS(=O)(=O)Cc2ccccc2)NS(C)(=O)=O)CSC1(C)C with Protease (Human immunodeficiency virus 1).
66

Kindly state the measured inhibition obtained for Cc1ccc(CSC[C@@H](NS(C)(=O)=O)C(=O)N[C@@H](Cc2ccccc2)[C@H](O)C(=O)N2CSC(C)(C)[C@H]2C(=O)NCc2ccccc2C)cc1 with Protease (Human immunodeficiency virus 1).
58

Kindly state the measured inhibition obtained for CC(=O)N[C@H](CS(=O)(=O)Cc1ccccc1)C(=O)N[C@@H](Cc1ccccc1)[C@H](O)C(=O)N1CSC(C)(C)[C@H]1C(=O)NCc1ccccc1C with Protease (Human immunodeficiency virus 1).
47

---

Consider the following molecules; for each one, report its pEC50.
# System: Human immunodeficiency virus 1
# Assay remarks: Antiviral activity against HIV1 3B in human MT4 cells assessed as inhibition of viral-induced cytopathic effect by MTT method
# Type: functional, organism-based
# Condition set: Human immunodeficiency virus 1, 3B
pEC50 here: minus log base 10 of the concentration, concentration in moles per litre.

Quick one: pEC50 of CC(=O)N[C@H](CSCc1ccc(C)cc1)C(=O)N[C@@H](Cc1ccccc1)[C@H](O)C(=O)N1CSC(C)(C)[C@H]1C(=O)NCc1ccccc1C ?
7.92

Quick one: pEC50 of CC(=O)N[C@H](CS(=O)(=O)Cc1ccc(C)cc1)C(=O)N[C@@H](Cc1ccccc1)[C@H](O)C(=O)N1CSC(C)(C)[C@H]1C(=O)NCc1ccccc1C ?
7.09

Quick one: pEC50 of CC(=O)N[C@H](CS(=O)(=O)c1ccc(F)cc1)C(=O)N[C@@H](Cc1ccccc1)[C@H](O)C(=O)N1CSC(C)(C)[C@H]1C(=O)NCc1ccccc1C ?
6.98

Quick one: pEC50 of Cc1ccccc1CNC(=O)[C@H]1N(C(=O)[C@@H](O)[C@H](Cc2ccccc2)NC(=O)[C@@H](CSc2ccc3ccccc3n2)NS(C)(=O)=O)CSC1(C)C ?
6.77

Quick one: pEC50 of CC(=O)N[C@H](COCc1ccccc1)C(=O)N[C@@H](Cc1ccccc1)[C@H](O)C(=O)N1CSC(C)(C)[C@H]1C(=O)NCc1ccccc1C ?
7.68

Quick one: pEC50 of Cc1ccccc1CNC(=O)[C@H]1N(C(=O)[C@@H](O)[C@H](Cc2ccccc2)NC(=O)[C@@H](CS(=O)(=O)c2ccc3ccccc3n2)NS(C)(=O)=O)CSC1(C)C ?
6.33

Quick one: pEC50 of Cc1ccccc1CNC(=O)[C@H]1N(C(=O)[C@@H](O)[C@H](Cc2ccccc2)NC(=O)[C@@H](CS(=O)(=O)c2ccc(F)cc2)NS(C)(=O)=O)CSC1(C)C ?
6.67

Quick one: pEC50 of CC(=O)N[C@H](CS(=O)(=O)c1ccc2ccccc2c1)C(=O)N[C@@H](Cc1ccccc1)[C@H](O)C(=O)N1CSC(C)(C)[C@H]1C(=O)NCc1ccccc1C ?
7.55

Quick one: pEC50 of Cc1ccccc1CNC(=O)[C@H]1N(C(=O)[C@@H](O)[C@H](Cc2ccccc2)NC(=O)[C@@H](CS(=O)(=O)c2ccc3ccccc3c2)NS(C)(=O)=O)CSC1(C)C ?
7.09

Quick one: pEC50 of CC(=O)N[C@H](CS(=O)(=O)c1ccc(Cl)cc1)C(=O)N[C@@H](Cc1ccccc1)[C@H](O)C(=O)N1CSC(C)(C)[C@H]1C(=O)NCc1ccccc1C ?
7.33

Quick one: pEC50 of CC(=O)N[C@H](CCc1ccccc1)C(=O)N[C@@H](Cc1ccccc1)[C@H](O)C(=O)N1CSC(C)(C)[C@H]1C(=O)NCc1ccccc1C ?
7.29

Quick one: pEC50 of Cc1ccccc1CNC(=O)[C@H]1N(C(=O)[C@@H](O)[C@H](Cc2ccccc2)NC(=O)[C@@H](CS(=O)(=O)Cc2ccccc2)NS(C)(=O)=O)CSC1(C)C ?
6.66

Quick one: pEC50 of Cc1ccccc1CNC(=O)[C@H]1N(C(=O)[C@@H](O)[C@H](Cc2ccccc2)NC(=O)[C@@H](CSc2cccc3ccccc23)NS(C)(=O)=O)CSC1(C)C ?
8.19

Quick one: pEC50 of CC(=O)N[C@H](CSc1ccc2ccccc2n1)C(=O)N[C@@H](Cc1ccccc1)[C@H](O)C(=O)N1CSC(C)(C)[C@H]1C(=O)NCc1ccccc1C ?
6.82

Quick one: pEC50 of Cc1ccccc1CNC(=O)[C@H]1N(C(=O)[C@@H](O)[C@H](Cc2ccccc2)NC(=O)[C@@H](CSCc2ccccc2)NS(C)(=O)=O)CSC1(C)C ?
7.77

Quick one: pEC50 of Cc1ccccc1CNC(=O)[C@H]1N(C(=O)[C@@H](O)[C@H](Cc2ccccc2)NC(=O)[C@@H](CS(=O)(=O)c2cccc3ccccc23)NS(C)(=O)=O)CSC1(C)C ?
7.21

Quick one: pEC50 of COc1ccc(CSC[C@@H](NS(C)(=O)=O)C(=O)N[C@@H](Cc2ccccc2)[C@H](O)C(=O)N2CSC(C)(C)[C@H]2C(=O)NCc2ccccc2C)cc1 ?
8.03

Quick one: pEC50 of Cc1ccccc1CNC(=O)[C@H]1N(C(=O)[C@@H](O)[C@H](Cc2ccccc2)NC(=O)[C@@H](CCc2ccccc2)NS(C)(=O)=O)CSC1(C)C ?
7.23

Quick one: pEC50 of CC(=O)N[C@H](CS(=O)(=O)Cc1ccccc1)C(=O)N[C@@H](Cc1ccccc1)[C@H](O)C(=O)N1CSC(C)(C)[C@H]1C(=O)NCc1ccccc1C ?
6.93

Quick one: pEC50 of Cc1ccccc1CNC(=O)[C@H]1N(C(=O)[C@@H](O)[C@H](Cc2ccccc2)NC(=O)[C@@H](CSc2ccc3ccccc3c2)NS(C)(=O)=O)CSC1(C)C ?
7.89

Values compiled from ChEMBL document CHEMBL1150285.
